ASSAY: qHTS profiling for inhibitors of Plasmodium falciparum proliferation (AID 504749); note: nearly all actives have a fitted effect of over 60% in size;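 for activity, negative = inhibition: 0% = DMSO vehicle and full inhibition = artemisinin control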
CONDITION_DETAILS: P. falciparum in erythrocytes, SYBR Green DNA, 72 h; at 28.7 µM (top of the series); parasite line A
Results filed as inconclusive are left out.
Reported activity, negative = inhibition values for the following molecules.

| MOLECULE | activity, negative = inhibition / % |
| --- | --- |
| Nc1ccc(C(=O)O)cc1 | -7.02 |
| CC(O)C(=O)O (stereo not drawn) | 1.12 |
| C1CCc2nnnn2CC1 | 11.2 |

---

Tested on: CRL-7250
ASSAY: Cytotoxic Profiling of Annotated Libraries Using Quantitative High-Throughput Screening (AID 1296008); note: % is set by controls: 0 for no effect and ±100 for the full control effect; nearly all actives have a fitted effect of over 60% in size
CONDITION_DETAILS: Five cell lines viability, CellTiter-Glo ATP luminescence, 48-72 h; active compounds read low
Records with an inconclusive call do not appear.
MEASURED_PARAMETER: max response (%)

| COMPOUND | TEST_VALUE |
| --- | --- |
| CN=C(NC#N)NCCSCc1csc(N=C(N)N)n1 | 1.65 |
| CN=C(NC#N)Nc1ccc(C2=NNC(=O)CC2C)cc1 (stereo not given) | -12.9 |
| CN1CCC(=C2c3ccccc3Sc3ccccc32)CC1 | -1.99 |
| Cc1cc(O)c(C(C)C)cc1Cl | -3.05 |
| C=C1C[C@H]2[C@@H]3C=C(C)C4=CC(=O)CC[C@]4(C)[C@H]3CC[C@]2(C)[C@@]1(OC(C)=O)C(C)=O | 1.09 |

---

ASSAY: qHTS of pediatric cancer cell lines to identify multiple opportunities for drug repurposing: Primary screen for Saos-2 cells (AID 1347097); note: nearly all actives have a fitted effect of over 40% in size
CONDITION_DETAILS: Saos-2 viability, CellTiter-Glo ATP luminescence, 48 h; series mostly up to 46 µM
Inconclusive results are not listed. Calls of active or inactive are those of the source. Calls follow the shape of the dose curve; as a rule, active = well fitted cell-killing curve with a large enough effect; inconclusive = small, poorly fitted or top-dose-only effect; inactive = no such curve, though single readings can be large or run the other way. Numbered stars: 1 amine (or outer) side, 2 acyl side, 3 side chain; on linkers, the order of the positions; unused ones are H or OH. Bridge positions count the residues as written; N and C are the ends. Square brackets hold non-standard residues; d marks the D form. Peptide text beside a SMILES is read from it. I, II: the chains in the order shown. Actinocin(9to1) = Cc1c2oc3c(C)ccc(C(=O)[*:1])c3nc-2c(C(=O)[*:2])c(N)c1=O; NMeV = CN[C@H](C(=O)O)C(C)C; Sar = CNCC(=O)O
Outcomes: YES = active, NO = inactive

| COMPOUND | CATEGORY |
| --- | --- |
| CN1C(CCl)Nc2cc(Cl)c(S(N)(=O)=O)cc2S1(=O)=O (centres undefined) | NO |
| O=S1(=O)c2cccc3cccc(c23)N1CCCN1CCN(c2ccc(F)cc2)CC1 | NO |
| CN(C)CCOc1ccccc1Cc1ccccc1 | NO |
| Cc1c2oc3c(C)ccc(C(=O)N[C@@H]4C(=O)N[C@H](C(C)C)C(=O)N5CCC[C@H]5C(=O)N(C)CC(=O)N(C)[C@@H](C(C)C)C(=O)O[C@@H]4C)c3nc-2c(C(=O)N[C@@H]2C(=O)N[C@H](C(C)C)C(=O)N3CCC[C@H]3C(=O)N(C)CC(=O)N(C)[C@@H](C(C)C)C(=O)O[C@@H]2C)c(N)c1=O (I: T[dV]P[Sar][NMeV] / II: T[dV]P[Sar][NMeV]; ester I:1-I:C, II:1-II:C; linker I:N-II:N via Actinocin(9to1)) | YES |

---

Tested on: ECU
ASSAY: qHTS profiling for inhibitors of Plasmodium falciparum proliferation (AID 504749); note: nearly all actives have a fitted effect of over 60% in size
CONDITION_DETAILS: P. falciparum in erythrocytes, SYBR Green DNA, 72 h; series mostly up to 28.7 µM
Results filed as inconclusive are left out. The source made the active and inactive calls. Calls come from the whole dose curve; as a rule, active = well fitted inhibition curve with a large enough effect; inconclusive = small, poorly fitted or top-dose-only effect; inactive = flat fitted curve, though single readings scatter.
Outcomes: true (1) = active, false (0) = inactive

| STRUCTURE_STRING | CATEGORY |
| --- | --- |
| COc1cc(OC)cc(OC)c1 | false (0) |
| CC(C)(C(=O)c1cccnc1)c1cccnc1 | false (0) |
| COc1ccc(CN2CCN(C(c3ccc(F)cc3)c3ccc(F)cc3)CC2)c(OC)c1OC | true (1) |
| Cc1ccnc(NS(=O)(=O)c2ccc(N)cc2)n1 | false (0) |
| COc1cc(NS(C)(=O)=O)ccc1Nc1c2ccccc2nc2ccccc12 | true (1) |
| CCN1CCCC1=O | false (0) |
| Cc1ncc(CSSCc2cnc(C)c(O)c2CO)c(CO)c1O | false (0) |
| N[C@@H](Cc1cnc[nH]1)C(=O)O | false (0) |
| O=C1c2ccccc2C(=O)C1c1ccccc1 | false (0) |
| Cc1cc(=O)n(-c2ccccc2)n1C | false (0) |
| CCCCCCCCCCCCCCCC[N+](C)(C)CC | true (1) |
| CCN1CCN(c2cc3c(cc2F)c(=O)c(C(=O)O)cn3C2CC2)CC1 | false (0) |
| CC(=O)Oc1ccc(C(c2ccc(OC(C)=O)cc2)c2ccccn2)cc1 | false (0) |
| C#C[C@]1(O)CC[C@H]2[C@@H]3CCc4cc(OC5CCCC5)ccc4[C@H]3CC[C@@]21C | false (0) |
| CCCN1CCCC[C@H]1C(=O)Nc1c(C)cccc1C | false (0) |

---

Test system: MCC-26
ASSAY: qHTS assay to identify novel small-molecules to repurpose for Merkel cell carcinoma treatment (AID 1296009); note: nearly all actives have a fitted effect of over 60% in size
CONDITION_DETAILS: MCC and control cell lines, CellTiter-Glo viability, 72 h; series mostly up to 46 µM
Inconclusive results are not listed. Activity calls are given as the source filed them. Calls come from the whole dose curve; as a rule, active = well fitted inhibition curve with a large enough effect; inconclusive = small, poorly fitted or top-dose-only effect; inactive = flat fitted curve, though single readings scatter.
Outcomes: Y = active, N = inactive

| STRUCTURE_STRING | TARGET_ENTITY | CATEGORY |
| --- | --- | --- |
| CCCCCCC[N+](CC)(CC)CCCCc1ccc(Cl)cc1 | MCC-26 | N |
| O=c1ccc2ccccc2o1 | MCC-26 | N |
| CCOC(=O)n1ccn(C)c1=S | MCC-26 | N |
| CN(C(=O)CN(CCO)CC(=O)N(C)C(C)(C)Cc1ccccc1)C(C)(C)Cc1ccccc1 | MCC-26 | N |
| C/C=C(/C(=C/C)c1ccc(O)cc1)c1ccc(O)cc1 | MCC-26 | N |
| CCCCCCCCCCCCCCNCCO | MCC-26 | N |
| O=c1[nH]c(=O)n([C@H]2CCCO2)cc1F | MCC-26 | N |
| CC(C)n1nc(-c2cc3cc(O)ccc3[nH]2)c2c(N)ncnc21 | MCC-26 | Y |

---

Test system: CP265
ASSAY: qHTS profiling for inhibitors of Plasmodium falciparum proliferation (AID 504749); note: nearly all actives have a fitted effect of over 60% in size
CONDITION_DETAILS: P. falciparum in erythrocytes, SYBR Green DNA, 72 h; series mostly up to 28.7 µM
Inconclusive results are not listed. Calls of active or inactive are those of the source. Calls follow the shape of the dose curve; as a rule, active = well fitted inhibition curve with a large enough effect; inconclusive = small, poorly fitted or top-dose-only effect; inactive = flat fitted curve, though single readings scatter.
Outcomes: active, inactive

| COMPOUND | CATEGORY |
| --- | --- |
| Cc1c(C)n(Cc2ccccc2)c2ccc(C(=O)OCCN(C)C)cc12 | inactive |
| O=c1ccc2ccccc2o1 | inactive |
| CCCCOc1ccc(OCCCN2CCOCC2)cc1 | inactive |
| CC(C)COC(=O)c1ccc(N)cc1 | inactive |
| CC1(C)CCC(NC(=O)[C@@H](N)CCC(=O)O)CC1 | inactive |
| COc1c(C)c2c(c(O)c1C/C=C(\C)CCC(=O)O)C(=O)OC2 | active |
| COc1ccc(CN2CCN(C(c3ccc(F)cc3)c3ccc(F)cc3)CC2)c(OC)c1OC | active |
| CC(C)(Oc1ccc(Cl)cc1)C(=O)O | inactive |
| COCc1c(C(C)C)nc(C(C)C)c(/C=C/[C@@H](O)C[C@@H](O)CC(=O)O)c1-c1ccc(F)cc1 | inactive |
| C[C@H](O)C(=O)Nc1c(I)c(C(=O)NC(CO)CO)c(I)c(C(=O)NC(CO)CO)c1I | inactive |
| Cc1cc(N)c2cc(NC(=O)Nc3ccc4nc(C)cc(N)c4c3)ccc2n1 | active |
| C=CCc1ccc(O)c(OC)c1 | inactive |
| CCC(C(=O)OCCN(CC)CC)c1ccccc1 (stereo unspecified) | inactive |
| C1CCc2nnnn2CC1 | inactive |
| Cc1ccnc(NS(=O)(=O)c2ccc(N)cc2)n1 | inactive |
| O=C(O)CNC(=O)c1ccccc1 | inactive |
| CCCCCCC[N+](CC)(CC)CCCCc1ccc(Cl)cc1 | active |
| CC(C)NC[C@@H](O)COc1cccc2ccccc12 | active |
| O=C1c2ccccc2C(=O)C1c1ccccc1 | inactive |
| C[C@H]1[C@H](NC(=O)/C(=N/OC(C)(C)C(=O)O)c2csc(N)n2)C(=O)N1S(=O)(=O)O (stereo in doubt) | inactive |
| NCCCC[C@H](N[C@@H](CCc1ccccc1)C(=O)O)C(=O)N1CCC[C@H]1C(=O)O | inactive |
| Cc1cccn2c(=O)c(-c3nnn[nH]3)cnc12 | inactive |
| CCCCOc1ccc(C(=O)CCN2CCCCC2)cc1 | inactive |
| C[C@@H]1CN(CCCn2c3ccccc3c3ccccc32)C[C@H](C)N1 | active |
| CN(C)CCOc1ccccc1Cc1ccccc1 | active |
| O=C(O)CCCCC(=O)O | inactive |
| C[C@]12CC[C@@H]3c4ccc(O)cc4CC[C@H]3[C@@H]1CC[C@@H]2O | inactive |
| CC(=O)Oc1ccc(C(=C2CCCCC2)c2ccc(OC(C)=O)cc2)cc1 | inactive |
| CC1=C(C(=O)OC(C)C)C(c2cccc([N+](=O)[O-])c2)C(C(=O)OC2CN(C(c3ccccc3)c3ccccc3)C2)=C(N)N1 (stereo unspecified) | active |
| Nc1cc(Cl)c(NC2=NCCN2)c(Cl)c1 | inactive |
| CC(=O)N(O)CCCCCNC(=O)CCC(=O)N(O)CCCCCNC(=O)CCC(=O)N(O)CCCCCN | inactive |
| Cc1cccc(C)c1NC(=O)CN1CCN(CCCC(c2ccc(F)cc2)c2ccc(F)cc2)CC1 | inactive |
| CC(C)(CO)[C@@H](O)C(=O)NCCCO | inactive |
| O=C(OCCOCCO)c1ccccc1Nc1cccc(C(F)(F)F)c1 | inactive |
| Cc1c(C(N)=O)cc([N+](=O)[O-])cc1[N+](=O)[O-] | inactive |
| CC(Cc1cccc(C(F)(F)F)c1)NCCOC(=O)c1ccccc1 (stereo unspecified) | inactive |
| CCCCN1CCCC1C(=O)Nc1c(C)cc(C)cc1C (stereo unspecified) | inactive |
| C#C[C@]1(OC(C)=O)CC[C@H]2[C@@H]3CCC4=C[C@@H](OC(C)=O)CC[C@@H]4[C@H]3CC[C@@]21C | inactive |
| CN1CCC[C@@H]1c1cccnc1 | inactive |
| CCCCCCCCCCCCCCCCOP(=O)([O-])OCC[N+](C)(C)C | inactive |
| CNCCC=C1c2ccccc2CCc2ccccc21 | active |

Reference source: PubChem BioAssay (NCATS)
